Listed here: compounds with reported IC50 for Full length Akt3 (Homo sapiens).

Worked examples follow.
{"compound": "Cn1ncc(-c2ccc3ccccc3c2)c1-c1ccc2c(c1)CN([C@H](CN)Cc1cccc(F)c1)C2=O [Example 21]", "IC50": "< 0.5 µM"}
{"compound": "CC(C)OCc1cnn(C)c1-c1ccc2c(c1)CN([C@@H](CN)c1ccccc1)C2=O [Example 122]", "IC50": "0.5 to 5 µM"}
{"compound": "Cn1ncc(Cl)c1-c1cc2c(cn1)C(=O)N([C@H](CN)Cc1ccccc1)C2 [Example 100]", "IC50": "< 0.5 µM"}
{"compound": "Cn1nccc1-c1ccc2c(n1)CN([C@H](CN)Cc1ccccc1)C2=O [Example 111]", "IC50": "> 5 µM"}
{"compound": "Cn1ncc(Cl)c1-c1ccc2c(c1)CN([C@H](CN)Cc1cccc(F)c1)C2=O [Example 2]", "IC50": "< 0.5 µM"}
{"compound": "CSCc1cnn(C)c1-c1ccc2c(c1)CN([C@H](CN)Cc1ccccc1)C2=O [Example 59]", "IC50": "0.5 to 5 µM"}
{"compound": "Cn1ncc(Cl)c1-c1ccc2c(c1)CN([C@H](CN)Cc1cccnc1)C2=O [Example 65]", "IC50": "< 0.5 µM"}
{"compound": "CCCOCc1cnn(C)c1-c1ccc2c(c1)CN([C@H](CN)Cc1cc(F)cc(F)c1)C2=O [Example 46]", "IC50": "< 0.5 µM"}

## Task Enter recorded IC50 with Full length Akt3 (Homo sapiens) for CCSCc1cnn(C)c1-c1cc2c(cn1)C(=O)N([C@H](CN)Cc1cccc(F)c1)C2 [Example 98] here.
Sequence (Q9Y243 whole entry): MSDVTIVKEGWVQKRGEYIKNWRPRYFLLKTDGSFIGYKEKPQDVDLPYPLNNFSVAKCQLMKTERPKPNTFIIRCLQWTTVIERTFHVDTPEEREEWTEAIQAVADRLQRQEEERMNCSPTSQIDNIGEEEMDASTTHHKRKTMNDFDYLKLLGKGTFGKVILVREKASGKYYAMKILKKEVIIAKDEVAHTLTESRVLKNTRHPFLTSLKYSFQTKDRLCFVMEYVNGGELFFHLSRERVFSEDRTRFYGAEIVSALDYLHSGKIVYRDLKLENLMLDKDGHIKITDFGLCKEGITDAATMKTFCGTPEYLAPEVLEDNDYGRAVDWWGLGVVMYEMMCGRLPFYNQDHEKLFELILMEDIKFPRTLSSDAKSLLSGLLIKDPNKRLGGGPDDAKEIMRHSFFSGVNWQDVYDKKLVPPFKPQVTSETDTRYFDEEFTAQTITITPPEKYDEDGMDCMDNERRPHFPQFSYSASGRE
## Result 0.5 to 5 µM

## Task Please look at Cn1ncc(Cl)c1-c1ccc2c(c1)CN([C@H](CNC1CC1)Cc1cccc(F)c1)C2=O [Example 33] and tell me its recorded IC50 on Full length Akt3 (Homo sapiens).
## Result 0.5 to 5 µM
